Numbers sourced from PubChem BioAssay AID651965.

biological target: ATP-dependent Clp protease proteolytic subunit (Bacillus subtilis (strain 168)); assay: qHTS Assay for Activators of ClpP; conditions: purified B. subtilis ClpP, FRET peptide cleavage, 20 min; series mostly up to 57.5 µM
Screen size: about 340,000 compounds; about 6,400 (1.9%) were called active. About 4% were inconclusive and are not listed. Calls come from the whole dose curve; as a rule, active = well fitted falling curve with a large enough effect; inconclusive = small, poorly fitted or top-dose-only effect; inactive = no such curve, though single readings can be large or run the other way. Many of the other results were omitted from the sample, so actives are more common in it than they were.
Would you mind answering with one of these outcomes? t = active, f = inactive

Sample answers from the record:
# COMPOUND, GROUP
records = [
    ("Cc1ccc(C2C=C(c3ccc(Cl)cc3)Nc3nc(NC(=O)CCC(=O)O)nn32)cc1 (centres undefined)", "t"),
    ("CCOc1ccc(C2=CC(c3ccccc3)n3ncnc3N2)cc1 (centres undefined)", "f"),
    ("COc1ccc(-c2c(C)nn3c(N4CCC(C(=O)NCCC(C)C)CC4)cc(C)nc23)cc1OC", "f"),
    ("CCOC(=O)[C@]12CCC=C1N(Cc1cccc3ccccc13)C(=O)[C@H](CC(=O)NCc1cccc(C(F)(F)F)c1)C2", "f"),
    ("Cc1nccn1-c1ccc(NC(=O)[C@H]2O[C@@H](n3ccc(=O)[nH]c3=O)[C@H](O)[C@@H]2O)cc1", "f"),
    ("O=C(NCc1cccnc1)c1cc(C2CCCN(C(=O)CCCc3ccccc3)C2)on1 (centres undefined)", "f"),
]

Called result for `COc1ccc(CCNc2cc(C)nc3c(-c4ccc(Cl)cc4)c(C)nn23)cc1OC`
t

Called result for `Cc1ccc(S(=O)(=O)N2[C@@H](Cc3ccccc3)CO[C@H]2CC(=O)OCc2ccccc2)cc1`
f

Called result for `CC(C)CCOc1ccc(C(=O)Nc2cc(S(=O)(=O)N3CCOCC3)ccc2N2CCOCC2)cc1`
f

* * *

biological target: ATP-dependent Clp protease proteolytic subunit (Bacillus subtilis (strain 168)) (UniProt P80244); assay: qHTS Assay for Activators of ClpP; details: purified B. subtilis ClpP, FRET peptide cleavage, 20 min; series mostly up to 57.5 µM
Out of some 340,000 compounds screened, about 6,400 (1.9%) were called active. Another 4% or so got no clear call; they are omitted. Calls come from the whole dose curve; as a rule, active = well fitted falling curve with a large enough effect; inconclusive = small, poorly fitted or top-dose-only effect; inactive = no such curve, though single readings can be large or run the other way. What follows is part of a selection rich in actives, with near analogues and random picks from the rest.
Would you mind answering with one of these outcomes? yes for active, no for inactive

Sample answers from the record:
# COMPOUND, GROUP
records = [
    ("CC(C)(C)OC(=O)N(Cc1ccco1)S(=O)(=O)c1ccccc1Br", "no"),
    ("Cc1ccc(Nc2nc(N3CCOCC3)nc(N3CCOCC3)n2)cc1Cl", "no"),
    ("CCOC(=O)c1[nH]c2ccc(OC)cc2c1NC(=O)N1CCOCC1", "yes"),
    ("CCNC(=O)N1CCN(S(=O)(=O)c2ccc3c(c2)OCCCO3)CC1", "no"),
    ("O=S(=O)(c1ccc(Cl)cc1)c1nnn2c1nc(NC1CCCC1)c1sccc12", "yes"),
]

Called result for `C[C@@H]1CN([C@H](C)CO)C(=O)c2cc(-c3ccc(F)cc3)cnc2O[C@H]1CN(C)C(=O)c1ccc(F)cc1`
no

Called result for `CCOC(=O)N1CCN(CCC(=O)Nc2cc(OC)ccc2OC)CC1`
no

Called result for CCOC(=O)[C@H]1Nc2ccc(Cl)cc2[C@@H]2[C@H]1C1CC(c3ccccc31)N2C(=O)OCc1ccccc1 (some centres not stated)
no

Called result for `O=C(CN1CCOCC1)Nc1c2c(nc3c1CCC3)CCC2`
no

Called result for `COc1cc2nc(N3CCCN(C)CC3)nc(NC(C)C)c2cc1OC`
no

Called result for `O=S(=O)(c1ccc(Br)cc1)c1nnn2c1nc(NC1CCCCCC1)c1sccc12`
no

* * *

molecular target: ATP-dependent Clp protease proteolytic subunit (Bacillus subtilis (strain 168)); assay: qHTS Assay for Activators of ClpP; note: potency is the fitted concentration of half-maximal effect; note: the source files actives as falling curves though it sought activators and does not explain the sign; nearly all actives have a fitted effect of over 65% in size; settings: purified B. subtilis ClpP, FRET peptide cleavage, 20 min; series mostly up to 57.5 µM
Hit rate of the full screen: of about 340,000 compounds, about 6,400 (1.9%) were called active. Roughly 4% stayed inconclusive and do not appear here. For the sample, actives were picked, then their nearest neighbours and some compounds at random.
ATTRIBUTE MEASURED: Potency

# COMPOUND, VALUE MEASURED
measured = [
    ("Cc1cc(=O)oc2ccc(OCC(=O)O)cc12", "31.6 µM (active)"),
    ("CCCOC(=O)Cc1c(O)c2ccccc2[nH]c1=O", "25.1 µM (active)"),
    ("COC(=O)Cc1c(-c2[nH]c3ccccc3c2CC(=O)OC)[nH]c2ccccc12", "28.2 µM (active)"),
    ("O=C(Cc1c(O)c2ccccc2[nH]c1=O)NCc1ccccc1", "20 µM (active)"),
    ("O=C(Cc1ccccc1)NCc1ccc(F)cc1", "inactive"),
    ("Cc1ccc(O)c(/C=N/NC(=O)COc2ccc3c(C)cc(=O)oc3c2)c1", "inactive"),
]

Now examine the next entry.
// fetch ATP-dependent Clp protease proteolytic subunit (Bacillus subtilis (strain 168)) Potency for COCCCn1cc(CN2CC(N(C)C)CS2(=O)=O)nn1 (configuration not stated)
inactive

* * *

Target: ATP-dependent Clp protease proteolytic subunit (Bacillus subtilis (strain 168))
Test: qHTS Assay for Activators of ClpP; note: the source files actives as falling curves though it sought activators and does not explain the sign; nearly all actives have a fitted effect of over 65% in size
Conditions: purified B. subtilis ClpP, FRET peptide cleavage, 20 min; series mostly up to 57.5 µM
Text: The Clp protease proteolytic subunit (ClpP) is the core unit of the Clp complex belonging to the peptidase family S14 that hydrolyzes protein into small peptides in the presence of ATP and magnesium. It is ubiquitously expressed and is the major protease in bacteria. […] Unlike common antibiotics that simply interfere with the essential enzyme activity, ADEP binding activates the ClpP core in the absence of the regulatory Clp-ATPases leading to uncontrolled proteolysis and eventually cell death. […]
The campaign covered roughly 340,000 compounds. About 6,400 (1.9%) were called active. Another 4% or so got no clear call; they are omitted. Calls come from the whole dose curve; as a rule, active = well fitted falling curve with a large enough effect; inconclusive = small, poorly fitted or top-dose-only effect; inactive = no such curve, though single readings can be large or run the other way. Only a selection was taken, and actives are over-represented in it overall.
Would you mind answering with one of these outcomes? label 1 = active, label 0 = inactive

# MOLECULE, GROUP
rows = [
    ("CC(C)Oc1ccc(CN2CCC2(C)C(=O)NCc2ccc(C(F)(F)F)cc2)cc1 (stereo unspecified)", "label 0"),
    ("CCc1ccc(-c2cc3c(=O)n(CC(=O)NCCCN4CCN(Cc5ccccc5)CC4)nc(C)n3n2)cc1", "label 0"),
    ("CC(=O)NC(c1ccccc1)c1nc(-c2cccc(C(C)C)c2)cs1 (stereo unspecified)", "label 0"),
    ("COc1cccc(C(=O)OCc2cc(=O)oc3c(C)c(C)ccc23)c1OC", "label 0"),
    ("COC(=O)Cc1cc(=O)oc2c(C)c(O)ccc12", "label 1"),
    ("O=C(CSc1ccccc1)Nc1cccc(S(=O)(=O)N2CCOCC2)c1", "label 0"),
    ("CC(=O)Nc1cc(-c2ccc(N3CCN(C)CC3)cc2)cn2c(-c3ccc(F)cc3)cnc12", "label 0"),
    ("COCCNc1ncnc2c1nc1n2CCCC1", "label 0"),
]

Called result for `NC(=O)c1c(Nc2nc3c(F)cccc3s2)sc2c1CCCC2`
label 0

Called result for `Fc1cc(F)c2nc(Nc3nc4c(F)cccc4s3)sc2c1`
label 1

Called result for CCC(O)CNc1nc(-n2nc(C)cc2C)nc2sc3c(c12)CC(C)(C)OC3 (stereo unspecified)
label 0

* * *

target: ATP-dependent Clp protease proteolytic subunit (Bacillus subtilis (strain 168)) (UniProt P80244); assay: qHTS Assay for Activators of ClpP; note: the source files actives as falling curves though it sought activators and does not explain the sign; nearly all actives have a fitted effect of over 65% in size; settings: purified B. subtilis ClpP, FRET peptide cleavage, 20 min; series mostly up to 57.5 µM
Out of some 340,000 compounds screened, about 6,400 (1.9%) were called active. Roughly 4% stayed inconclusive and do not appear here. Calls follow the shape of the dose curve; as a rule, active = well fitted falling curve with a large enough effect; inconclusive = small, poorly fitted or top-dose-only effect; inactive = no such curve, though single readings can be large or run the other way. Shown is part of a subset that was picked to be rich in actives.
Would you mind answering with one of these outcomes? active, inactive

# MOLECULE, GROUP
measured = [
    ("Cc1cc2nn(-c3ccc(Cl)cc3)nc2cc1NC(=O)C(C)C", "inactive"),
]

Called result for `Nc1nonc1C(=O)NCCc1ccccc1`
inactive

Called result for `c1ccc(-c2cc(-c3ccccc3)[nH]n2)cc1`
inactive

* * *

biological target: ATP-dependent Clp protease proteolytic subunit (Bacillus subtilis (strain 168)); test: qHTS Assay for Activators of ClpP; note: the source files actives as falling curves though it sought activators and does not explain the sign; nearly all actives have a fitted effect of over 65% in size; settings: purified B. subtilis ClpP, FRET peptide cleavage, 20 min; series mostly up to 57.5 µM
The campaign covered roughly 340,000 compounds. About 6,400 (1.9%) were called active. About 4% were inconclusive and are not listed. Calls follow the shape of the dose curve; as a rule, active = well fitted falling curve with a large enough effect; inconclusive = small, poorly fitted or top-dose-only effect; inactive = no such curve, though single readings can be large or run the other way. Only a selection was taken, and actives are over-represented in it overall.
Would you mind answering with one of these outcomes? 1.0 = active, 0.0 = inactive

Sample answers from the record:
# COMPOUND, GROUP
data = [
    ("CCOC(=O)c1c(-c2ccc(OC)cc2)oc2ccc(OCc3ccc(C(=O)OC)cc3)cc12", 0.0),
    ("CN(CCOc1ccccc1)C(=O)c1cc(-c2ccco2)nc2ccccc12", 0.0),
    ("CC1CCCN(C(=O)c2cc(-c3ccco3)nc3ccccc23)C1 (stereo unspecified)", 0.0),
    ("O=C(NCc1ccccn1)[C@@H]1CCCN1C(=O)[C@@H]1CCCN1C(=O)c1ccccc1", 0.0),
]

Called result for Cc1cccc(CN2CCN(C3CN(Cc4ccccc4)S(=O)(=O)C3)CC2)c1 (stereo unspecified)
0.0

Called result for `CCn1c2ccccc2c2cc(NC(=O)COc3ccc(C)cc3C)ccc21`
0.0

Called result for `Cc1ccc(N(CCC(=O)O)S(=O)(=O)c2cccc(C(F)(F)F)c2)cc1`
1.0

Called result for `CN(N)c1nc(N2CCCC2)nc(N2CCCC2)n1`
1.0

Called result for `Cc1ccc([C@H]2N[C@]3(CCCN(CC4CCCCC4)C3=O)[C@H]3C(=O)N(Cc4ccccc4)C(=O)[C@@H]23)cc1`
0.0

Called result for `CS(=O)(=O)/C(C#N)=C/c1cccn1S(=O)(=O)c1ccc([N+](=O)[O-])cc1`
0.0

Called result for `Cc1ccc(-n2ncc3c(N4CCC(C(N)=O)CC4)ncnc32)cc1`
0.0

Called result for `O=C(NNc1ncnc2c1cnn2-c1ccccc1)c1ccco1`
0.0
